Measured shrunken log2 fold change of individual entries
tested on: Escherichia coli TOP10; test: shrunken log2 fold change of peptide-encoding DNA abundance (4.5 h post-induction vs induction); higher = less antimicrobial activity (less host growth inhibition); conditions: time post-induction: 4.5 h; library: site-saturation at positions 5, 18, 19, 20;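 note: peptides expressed intracellularly from a pBAD plasmid library in pooled LB shake-flask culture, induced with 0.3% L-arabinose, DNA abundance read by NGS, three biological replicates, DESeq2 with apeglm shrinkage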

{"query sequence": "RRIRVRPPRLPRPRPRPCGVPRP", "tested target": "Escherichia coli TOP10", "shrunken log2 fold change": -0.0743}
{"query sequence": "RRIRYRPPRLPRPRPRPLTEPRP", "tested target": "Escherichia coli TOP10", "shrunken log2 fold change": -0.00518}
{"query sequence": "RRIRVRPPRLPRPRPRPSTAPRP", "tested target": "Escherichia coli TOP10", "shrunken log2 fold change": -0.0759}
{"query sequence": "RRIRFRPPRLPRPRPRPNPTPRP", "tested target": "Escherichia coli TOP10", "shrunken log2 fold change": 0.0233}
{"query sequence": "RRIRPRPPRLPRPRPRPLSVPRP", "tested target": "Escherichia coli TOP10", "shrunken log2 fold change": -0.121}
{"query sequence": "RRIRPRPPRLPRPRPRPVLGPRP", "tested target": "Escherichia coli TOP10", "shrunken log2 fold change": 0.122}
{"query sequence": "RRIRYRPPRLPRPRPRPLLGPRP", "tested target": "Escherichia coli TOP10", "shrunken log2 fold change": -0.25}
{"query sequence": "RRIRHRPPRLPRPRPRPFHHPRP", "tested target": "Escherichia coli TOP10", "shrunken log2 fold change": 0.0477}
{"query sequence": "RRIRIRPPRLPRPRPRPAWTPRP", "tested target": "Escherichia coli TOP10", "shrunken log2 fold change": 0.304}
{"query sequence": "RRIRCRPPRLPRPRPRPDFCPRP", "tested target": "Escherichia coli TOP10", "shrunken log2 fold change": -0.228}
{"query sequence": "RRIRGRPPRLPRPRPRPVDHPRP", "tested target": "Escherichia coli TOP10", "shrunken log2 fold change": 0.193}
{"query sequence": "RRIRKRPPRLPRPRPRPHPQPRP", "tested target": "Escherichia coli TOP10", "shrunken log2 fold change": 0.223}
{"query sequence": "RRIRERPPRLPRPRPRPQQNPRP", "tested target": "Escherichia coli TOP10", "shrunken log2 fold change": -0.122}
{"query sequence": "RRIRMRPPRLPRPRPRPKNSPRP", "tested target": "Escherichia coli TOP10", "shrunken log2 fold change": 0.132}
{"query sequence": "RRIRYRPPRLPRPRPRPIMQPRP", "tested target": "Escherichia coli TOP10", "shrunken log2 fold change": -0.107}
